Test system: B16
experimental protocol: Concentration that reduces the number of colonies formed by 50% in a clonogenic assay with B16 mouse melanoma cells.
Assay type: functional, cell-based
quantity kind: IC50 (µM)
Your answer is read as µM, so omit the unit and give the number.

I looked up GOLD SODIUM THIOMALATE and its IC50 for B16 was 60
